Target: MC3-R (Homo sapiens, UniProt P41968)
Construct: expressed in transfected cells; host or cells: HEK-293
Sequence (P41968 whole entry): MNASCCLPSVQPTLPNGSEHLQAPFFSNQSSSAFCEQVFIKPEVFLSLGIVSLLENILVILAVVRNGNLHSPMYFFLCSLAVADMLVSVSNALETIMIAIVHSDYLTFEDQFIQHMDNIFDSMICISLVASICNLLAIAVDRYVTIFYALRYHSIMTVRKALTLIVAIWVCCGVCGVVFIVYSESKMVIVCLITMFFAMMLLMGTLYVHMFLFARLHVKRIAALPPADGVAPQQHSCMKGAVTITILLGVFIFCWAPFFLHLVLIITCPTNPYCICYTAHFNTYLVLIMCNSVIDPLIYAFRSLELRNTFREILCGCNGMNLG
Test: Competitive inhibition binding assay using [I125]-NDP-α-MSH, HEK-293 membranes, recombinant hMC3-R
Conditions: 1 μM compound
readout: inhibition at 1 µM (%)

(A) C[C@@H]1CN(C(=O)[C@H](N)Cc2ccc3ccccc3c2)[C@@H](CCCNCCN)CN1C(=O)[C@H](N)Cc1ccc2ccccc2c1
(B) Cc1ccc(C[C@@H](N)C(=O)N2C[C@H](CCCNCCN)N(C(=O)[C@H](N)Cc3ccc(C)cc3C)C[C@H]2CC(C)C)c(C)c1
So which one has the bigger inhibition at 1 µM here, A or B ? Pick one; state its label. A
(A: 79%, B: 14%)

(a) CC(C)C[C@@H]1CN(C[C@H](N)Cc2ccc(Cl)cc2Cl)[C@@H](CCCNCCCCCN)CN1C(=O)Cc1ccc2ccccc2c1
(b) C[C@@H]1CN(C(=O)[C@H](N)Cc2ccc(Cl)c(Cl)c2)[C@@H](CCCNCCN)CN1C(=O)[C@H](N)Cc1ccc(Cl)c(Cl)c1
Between a and b , whose recorded inhibition at 1 µM is greater? State your choice using its label. b

(a) CC(C)C[C@@H]1CN(C(=O)[C@H](N)Cc2ccc3ccccc3c2)[C@@H](CCCNCCN)CN1C(=O)[C@H](N)Cc1ccc2ccccc2c1
(b) Cc1ccc(C[C@H](CN2C[C@@H](C)N(C(=O)Cc3ccc4ccccc4c3)C[C@@H]2CCCN2CCN(C)CC2)N(C)C)c(C)c1
(c) Cc1ccc(C[C@@H](N)CN2C[C@@H](C)N(C(=O)Cc3ccc4ccccc4c3)C[C@@H]2Cc2ccc(NCCN)cc2)c(C)c1
(d) CC(C)C[C@@H]1CN(C[C@@H](Cc2ccc(Cl)cc2Cl)N(C)C)[C@@H](CCCN(C)CCN)CN1C(=O)Cc1ccc2ccccc2c1
Hey, can you sort those molecules up there by inhibition at 1 µM, smallest first? In plain terms: list the labels in the order you were asked to. b, c, d, a
(b: 15%, c: 29%, d: 43%, a: 79%)

(1) CC(C)C[C@@H]1CN(C[C@H](N)Cc2ccc(Cl)cc2Cl)[C@@H](CCCNCCCN)CN1C(=O)Cc1ccc2ccccc2c1
(2) Cc1ccc(C[C@H](CN2C[C@@H](C)N(C(=O)Cc3ccc4ccccc4c3)C[C@@H]2CCCN(C)C2CCCCC2N(C)C)N(C)C)c(C)c1 (stereo partly shown)
Short answer wanted: higher inhibition at 1 µM, 1 or 2 ? When you have decided, please share the label of that item. 1

----------
Target: MC1-R (Mus musculus, UniProt Q01727)
Construct: from B-16 mouse melanoma cells (containing endogenous MC1-R); endogenous in cells; host or cells: B-16 mouse melanoma cells (membrane homogenates)
Sequence (Q01727 whole entry): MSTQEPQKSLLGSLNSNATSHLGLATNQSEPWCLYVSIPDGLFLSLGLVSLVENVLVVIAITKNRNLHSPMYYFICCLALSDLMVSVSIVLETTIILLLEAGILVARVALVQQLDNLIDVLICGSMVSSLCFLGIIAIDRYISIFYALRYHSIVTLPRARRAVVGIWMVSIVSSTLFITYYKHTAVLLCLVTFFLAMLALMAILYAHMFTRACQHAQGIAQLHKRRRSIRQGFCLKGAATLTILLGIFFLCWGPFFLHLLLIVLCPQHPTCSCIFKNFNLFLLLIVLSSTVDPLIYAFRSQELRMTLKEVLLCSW
Assay: Competitive inhibition binding assay using [I125]-NDP-α-MSH, B-16 mouse melanoma cell membranes
Conditions: 1 μM compound, B-16 mouse melanoma cells
readout: inhibition at 1 µM (%)

Take a look at these entries with their results.
Cc1ccc(C[C@@H](N)CN2C[C@@H](C)N(C(=O)Cc3ccc4ccccc4c3)C[C@@H]2CCCNC2CCNC2)c(C)c1 (stereo partly drawn) [Example 5]; 41
Cc1ccc(C[C@@H](N)CN2C[C@@H](C)N(C(=O)Cc3ccc4ccccc4c3)C[C@@H]2CCCNCCN)c(C)c1 [Example 3]; 41
Cc1ccc(C[C@H](CN2C[C@@H](C)N(C(=O)Cc3ccc4ccccc4c3)C[C@@H]2CCCN(C)C2CCN(C)C2)N(C)C)c(C)c1 (stereo partly drawn) [Example 7]; 4
Cc1ccc(C[C@@H](N)CN2C[C@@H](C)N(C(=O)Cc3ccc4ccccc4c3)C[C@@H]2CCCN2CCNCC2)c(C)c1 [Example 4]; 12

(1) CC(C)C[C@@H]1CN(C(=O)[C@H](N)Cc2ccc(Cl)cc2Cl)[C@@H](CCCCNCCN)CN1C(=O)Cc1ccc2ccccc2c1 [Example 1]
(2) Cc1ccc(C[C@H](CN2C[C@@H](C)N(C(=O)Cc3ccc4ccccc4c3)C[C@@H]2CCCN(C)CCN(C)C)N(C)C)c(C)c1 [Example 9]
Endpoint returns the identifier whose inhibition at 1 µM is numerically larger, either 1 or 2 . Please reply using the label of the selected record. 1
(1: 55%, 2: 0%)
